B1: CPEB3 Ribozyme (parent)
chain: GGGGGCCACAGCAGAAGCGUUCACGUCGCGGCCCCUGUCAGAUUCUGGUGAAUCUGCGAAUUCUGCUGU

variants of: B1; test: self-cleavage, relative activity (ratio to wild type); higher = more cleavage; co-transcriptional
Could you please report measured self-cleavage for the items listed next?
Give bare numbers.

Some solved entries appear below for comparison.
Which measured self-cleavage value corresponds to "GGGGGCCACAGCAGAAGCGUUCACGUCGCGGCCCCUGUCAGAUUCUGGUGAAUCUGCGAAAGCUGCUGU" ? 0.646

Which measured self-cleavage value corresponds to "GGGGGCCACAGCAGAAGCGCUCACGUCGCGGCCUCUGUCAGAUUCUGGUGAAUCUGCGAAUUCUGCUGU" ? 0.13

Which measured self-cleavage value corresponds to "GGGGGCUACAGCAGAAGCGUUCACGUCGCGGCCCCUGUGAGAUUCUGGUGAAUCUGCGAAUUCUGCUGU" ? 0.911

Which measured self-cleavage value corresponds to "GGGUGCCACAGCAGAAGCGUUCACGUCGCGGCCGCUGUCAGAUUCUGGUGAAUCUGCGAAUUCUGCUGU" ? 0.113

Which measured self-cleavage value corresponds to "GGGGGCCACAGCAGAAGCGUUCACGUCGCGGCCCCUGUCAGAUGCUGGUGAAUUUGCGAAUUCUGCUGU" ? 0.87

Which measured self-cleavage value corresponds to "GGGGGCCACAGCAGAAGCGUUCACGUCGCGGCCCCUGUCAGUUUCUGGUGUAUCUGCGAAUUCUGCUGU" ? 0.914

Which measured self-cleavage value corresponds to "GGGGGCCACAGCAGAAGCGUUCACUUCGCGGCCCCUGUCAGAUUCUGGCGAAUCUGCGAAUUCUGCUGU" ? 0.157

Which measured self-cleavage value corresponds to "GGGGGCCACAGCAGAAGCGGUCACGUCGCGGCCCCUGUCAGAUUCUGGUGAUUCUGCGAAUUCUGCUGU" ? 0.183

For every listed record, write down its self-cleavage.
1. GGGGGCCACAGCAGAAGCGUUCACGUCGCGGCCCCUGUCAGAUUCUGGUGAACCUGCGAAUUCUGCUGU
2. GGGGGCCACAGCAGAAGCAGUCACGUCGCGGCCCCUGUCAGAUUCUGGUGAAUCUGCGAAUUCUGCUGU
3. GGGGGCCACAGCAGAAGCGUUCACGUCGCGGCCCGUGUCAGAUUCUGGUGAAUCUGCGAAUUCUUCUGU
4. GGGGACCACAGCAGAAGCGUUCACGUCGCGGCCCCUGUCAGAUUCUGGUGAAUCUGCGAAUUCUGGUGU
5. GGGGGCCACAGCAGAAGCGUUCACGUCGCGGCCUCUGUCAGAUUCUGGUGGAUCUGCGAAUUCUGCUGU

0.947
0.111
0.223
0.826
1.01

Data credit: the RNAGym collection of RNA variant scans (doi:10.7554/elife.80360)
